Each recorded value in this set is attributed to patent US8513440B2.

target: UniProt:P54760
Sequence (P54760 16-987): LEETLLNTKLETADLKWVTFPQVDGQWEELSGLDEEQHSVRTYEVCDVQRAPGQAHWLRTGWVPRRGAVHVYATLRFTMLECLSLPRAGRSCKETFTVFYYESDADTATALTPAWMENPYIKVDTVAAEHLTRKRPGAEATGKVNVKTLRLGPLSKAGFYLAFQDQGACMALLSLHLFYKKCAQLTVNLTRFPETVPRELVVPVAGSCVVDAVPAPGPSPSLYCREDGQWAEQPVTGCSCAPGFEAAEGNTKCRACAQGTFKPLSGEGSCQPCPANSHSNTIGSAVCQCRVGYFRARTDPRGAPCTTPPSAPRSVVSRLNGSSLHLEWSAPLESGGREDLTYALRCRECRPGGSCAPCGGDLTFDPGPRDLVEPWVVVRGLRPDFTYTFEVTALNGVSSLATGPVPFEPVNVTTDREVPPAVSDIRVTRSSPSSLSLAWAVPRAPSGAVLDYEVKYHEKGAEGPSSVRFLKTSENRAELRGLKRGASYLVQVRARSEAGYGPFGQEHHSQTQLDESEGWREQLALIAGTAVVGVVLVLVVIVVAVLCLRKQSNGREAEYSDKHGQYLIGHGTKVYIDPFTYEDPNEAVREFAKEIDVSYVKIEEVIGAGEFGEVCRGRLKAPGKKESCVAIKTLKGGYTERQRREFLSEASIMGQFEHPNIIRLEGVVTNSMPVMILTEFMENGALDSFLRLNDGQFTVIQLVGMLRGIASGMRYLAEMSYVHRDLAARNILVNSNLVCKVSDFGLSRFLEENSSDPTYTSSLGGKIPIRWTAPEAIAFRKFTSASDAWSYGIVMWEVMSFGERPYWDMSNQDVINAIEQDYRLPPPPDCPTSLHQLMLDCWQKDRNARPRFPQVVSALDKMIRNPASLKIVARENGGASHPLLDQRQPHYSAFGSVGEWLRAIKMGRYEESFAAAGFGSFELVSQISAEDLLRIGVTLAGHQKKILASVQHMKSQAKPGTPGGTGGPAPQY
pIC50: −log10 of the molar value.

>  <molecule>
COc1cc(O)c2c(c1OC)/C=C/C[C@H](O)[C@H](O)C(=O)/C=C\C[C@H](C)OC2=O [Compound 1, Radicicol A]

>  <pIC50>
5.04

$$$$

###

pIC50: −log10 of the molar value.
Quick record: pIC50, VEGF-R3 (Homo sapiens).

>  <molecule>
COc1cc(O)c2c(c1Cl)/C=C/C[C@H](O)[C@H](O)C(=O)/C=C\C[C@H](C)OC2=O [Compound 31]

>  <pIC50>
6.68

$$$$
>  <molecule>
COc1cc(O)c2c(c1)/C=C/C[C@H](O)[C@H](O)C(=O)/C=C\C[C@H](C)OC2=O [Compound 3, 5-Z-7-oxozeaenol]

>  <pIC50>
6.96

$$$$
>  <molecule>
COc1cc(O)c2c(c1OC)/C=C/C[C@H](O)[C@H](O)C(=O)/C=C\C[C@H](C)OC2=O [Compound 1, Radicicol A]

>  <pIC50>
7.18

$$$$

###

biological target: PDGFR-beta (Homo sapiens)
Sequence (P09619 33-1106): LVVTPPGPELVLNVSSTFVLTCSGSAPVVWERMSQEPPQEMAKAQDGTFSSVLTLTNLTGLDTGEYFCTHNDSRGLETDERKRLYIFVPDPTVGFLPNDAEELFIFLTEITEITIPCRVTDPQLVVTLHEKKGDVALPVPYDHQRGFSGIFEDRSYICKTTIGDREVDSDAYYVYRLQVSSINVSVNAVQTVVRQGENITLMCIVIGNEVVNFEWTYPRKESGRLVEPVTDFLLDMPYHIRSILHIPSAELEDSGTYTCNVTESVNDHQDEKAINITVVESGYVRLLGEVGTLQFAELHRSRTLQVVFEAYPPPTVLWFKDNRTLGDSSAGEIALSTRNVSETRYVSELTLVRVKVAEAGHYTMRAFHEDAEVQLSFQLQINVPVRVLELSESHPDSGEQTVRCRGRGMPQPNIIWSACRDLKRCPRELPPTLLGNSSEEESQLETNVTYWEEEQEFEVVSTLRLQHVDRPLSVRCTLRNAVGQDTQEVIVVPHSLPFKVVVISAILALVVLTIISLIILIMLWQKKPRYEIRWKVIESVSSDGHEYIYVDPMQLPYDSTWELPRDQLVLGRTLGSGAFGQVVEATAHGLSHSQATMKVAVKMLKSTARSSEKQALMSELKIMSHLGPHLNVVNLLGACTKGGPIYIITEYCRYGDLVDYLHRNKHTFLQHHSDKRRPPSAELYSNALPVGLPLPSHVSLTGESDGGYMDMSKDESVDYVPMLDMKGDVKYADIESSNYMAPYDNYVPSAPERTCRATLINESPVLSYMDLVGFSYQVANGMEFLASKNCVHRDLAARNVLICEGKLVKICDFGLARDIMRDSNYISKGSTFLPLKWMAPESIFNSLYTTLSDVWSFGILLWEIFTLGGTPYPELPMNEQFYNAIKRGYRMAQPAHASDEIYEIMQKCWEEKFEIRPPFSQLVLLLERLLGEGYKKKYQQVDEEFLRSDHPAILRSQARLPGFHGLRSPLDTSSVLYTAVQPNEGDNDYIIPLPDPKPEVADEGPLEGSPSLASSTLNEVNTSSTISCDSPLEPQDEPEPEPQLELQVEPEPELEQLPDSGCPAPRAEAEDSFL
The entries below come with measured IC50 values attached.
observable: IC50 (nM)

>  <structure notation>
COc1cc(O)c2c(c1OC)/C=C/C[C@H](O)[C@H](O)C(=O)/C=C\C[C@H](C)OC2=O

>  <result unit>
nM

>  <observed>
210

$$$$
>  <structure notation>
COc1cc(O)c2c(c1Cl)/C=C/C[C@H](O)[C@H](O)C(=O)/C=C\C[C@H](C)OC2=O

>  <result unit>
nM

>  <observed>
370

$$$$

###

biological target: PDGFR-β (Homo sapiens, UniProt P09619); test: PDGFR-β autophosphorylation; settings: cellular autophosphorylation
pIC50: −log10 of the molar value.

>  <structure notation>
COc1cc(O)c2c(c1Cl)/C=C/C[C@H](O)[C@H](O)C(=O)/C=C\C[C@H](C)OC2=O

>  <pIC50>
4.89

$$$$

###

target: VEGF-R2 (Homo sapiens); experiment: radiometric protein kinase assay (33PanQinase Activity Assay); format: biochemical; design: made in house; host or cells: Sf9 insect cells (baculovirus); settings: panel of 24 kinases, 1 μM ATP, read-out: Inhibition of Kinases IC50
Sequence (P35968 20-1356): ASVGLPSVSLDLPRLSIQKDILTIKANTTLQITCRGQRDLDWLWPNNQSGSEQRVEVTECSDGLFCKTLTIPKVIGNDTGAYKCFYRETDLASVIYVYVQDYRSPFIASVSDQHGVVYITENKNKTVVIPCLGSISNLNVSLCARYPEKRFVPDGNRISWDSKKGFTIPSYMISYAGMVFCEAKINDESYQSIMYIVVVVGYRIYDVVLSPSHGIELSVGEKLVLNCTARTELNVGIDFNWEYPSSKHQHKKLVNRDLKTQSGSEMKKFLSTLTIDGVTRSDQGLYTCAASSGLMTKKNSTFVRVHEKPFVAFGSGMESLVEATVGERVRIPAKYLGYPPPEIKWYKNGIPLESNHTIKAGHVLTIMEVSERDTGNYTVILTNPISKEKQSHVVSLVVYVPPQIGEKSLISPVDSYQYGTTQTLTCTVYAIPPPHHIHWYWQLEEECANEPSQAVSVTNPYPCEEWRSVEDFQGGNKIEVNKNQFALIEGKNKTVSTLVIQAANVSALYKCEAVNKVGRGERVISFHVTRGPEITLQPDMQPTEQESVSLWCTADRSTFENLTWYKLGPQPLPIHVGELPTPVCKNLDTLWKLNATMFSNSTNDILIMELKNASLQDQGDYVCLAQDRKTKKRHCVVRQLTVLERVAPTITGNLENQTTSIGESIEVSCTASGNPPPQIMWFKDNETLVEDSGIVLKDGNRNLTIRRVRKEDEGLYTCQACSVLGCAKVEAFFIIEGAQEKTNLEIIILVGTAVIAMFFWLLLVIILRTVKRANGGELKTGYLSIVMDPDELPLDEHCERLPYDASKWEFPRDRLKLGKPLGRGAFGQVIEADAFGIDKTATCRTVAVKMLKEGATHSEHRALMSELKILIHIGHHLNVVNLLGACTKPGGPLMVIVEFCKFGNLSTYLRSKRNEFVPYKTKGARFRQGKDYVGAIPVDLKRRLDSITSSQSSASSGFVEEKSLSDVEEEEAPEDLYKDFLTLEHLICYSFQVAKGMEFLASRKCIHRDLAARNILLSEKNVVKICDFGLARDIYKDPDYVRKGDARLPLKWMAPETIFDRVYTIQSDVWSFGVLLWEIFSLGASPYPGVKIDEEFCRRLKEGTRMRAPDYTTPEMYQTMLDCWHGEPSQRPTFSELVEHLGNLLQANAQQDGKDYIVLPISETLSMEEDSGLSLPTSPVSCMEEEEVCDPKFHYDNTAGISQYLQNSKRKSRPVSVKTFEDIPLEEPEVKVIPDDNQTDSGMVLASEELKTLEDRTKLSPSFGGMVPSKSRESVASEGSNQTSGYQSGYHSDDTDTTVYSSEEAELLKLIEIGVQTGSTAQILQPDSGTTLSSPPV
The entries below come with measured IC50 values attached.
observable: IC50

>  <structure notation>
COc1cc(O)c2c(c1Cl)/C=C/C[C@H](O)[C@H](O)C(=O)/C=C\C[C@H](C)OC2=O

>  <observable>
IC50

>  <observed>
90 nM

$$$$
>  <structure notation>
COc1cc(O)c2c(c1)/C=C/C[C@H](O)[C@H](O)C(=O)/C=C\C[C@H](C)OC2=O

>  <observable>
IC50

>  <observed>
52 nM

$$$$
>  <structure notation>
COc1cc(O)c2c(c1OC)/C=C/C[C@H](O)[C@H](O)C(=O)/C=C\C[C@H](C)OC2=O

>  <observable>
IC50

>  <observed>
26 nM

$$$$
